Ok so here's the combined literature set: IC50 for UniProt Q06187.
observable: IC50 (nM)

INSERT INTO assay_data (item_smiles, tested_on, observable, qualifier_operator, reported_measurement) VALUES
  ('CN(C)C/C=C/C(=O)N[C@H]1CC[C@@H](n2nc(-c3ccc(Oc4ccccc4)cc3)c3c(N)ncnc32)CC1', 'UniProt Q06187', 'IC50', '=', 1.4),
  ('CC#CC(=O)N[C@H]1C[C@@H](n2nc(-c3ccc(Oc4ccccc4)cc3)c3c(N)ncnc32)C1', 'UniProt Q06187', 'IC50', '=', 3),
  ('CC(=O)c1ccc(Nc2nn(-c3cccc(-n4ncc5cc(C(C)(C)C)ccc5c4=O)c3CO)cc2C(N)=O)cc1', 'UniProt Q06187', 'IC50', '=', 0.12),
  ('C=CC(=O)Nc1cccc(-c2cc(C(F)(F)F)cc(Nc3cc(C)[nH]n3)n2)c1', 'UniProt Q06187', 'IC50', '=', 11.1),
  ('C=CC(=O)N1CCC[C@@H](n2nc(-c3ccc(C(=O)Nc4ccccc4)cc3)c3c(N)ncc(C)c32)C1', 'UniProt Q06187', 'IC50', '>', 1.56);
